study-target: Human bradykinin B1 receptor cell line (Homo sapiens)
Sequence (P46663 1-353): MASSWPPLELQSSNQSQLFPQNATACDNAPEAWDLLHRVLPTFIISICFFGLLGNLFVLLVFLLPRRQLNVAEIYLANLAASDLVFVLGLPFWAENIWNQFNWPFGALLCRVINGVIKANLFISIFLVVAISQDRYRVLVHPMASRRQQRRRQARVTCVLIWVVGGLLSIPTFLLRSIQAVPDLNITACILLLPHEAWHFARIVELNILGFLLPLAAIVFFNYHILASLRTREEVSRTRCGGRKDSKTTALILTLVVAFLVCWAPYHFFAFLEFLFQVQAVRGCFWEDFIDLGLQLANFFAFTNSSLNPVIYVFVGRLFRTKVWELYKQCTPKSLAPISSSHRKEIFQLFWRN
assay-name: Bradykinin B1 receptor antagonistic activity by intracellular calcium assay (Fluo-4, LDBK agonist)
experimental-setup: human B1 receptor cells, Fluo-4 calcium assay, agonist LDBK at EC80, with washing step
value-kind: IC50 (µM)
Just the number please, in µM, no unit attached.

Inquiry: Under Human bradykinin B1 receptor cell line (Homo sapiens): IC50 value of Nc1nc(N)c(/N=N/c2ccc(O)cc2)cc1O [Compound V] ?
Reply text: 29.5

Inquiry: Try this compound too: Nc1ccc(/N=N/c2ccccc2)c(N)n1 [Compound I]
Reply text: 32.4

Inquiry: Try this compound too: Nc1ccc(/N=N/c2ccc(O)cc2)c(N)n1 [Compound III]
Reply text: 27.1

Inquiry: Try this compound too: Nc1nc(N)c(/N=N/c2ccccc2)cc1O [Compound II]
Reply text: 12.5

Inquiry: Try this compound too: Nc1ccc(/N=N/c2ccccc2O)c(N)n1 [Compound IV]
Reply text: 8.4
